# Tested on: TK-10 renal
# PROTOCOL_SUMMARY: NCI tumour cell line growth inhibition, 48 h; in the data active = GI50 below about 0.43 µM; inactive = the rest
Classes used: label 1 = active, label 0 = inactive

> print(dat)
                                    compound  class.assignment
 1          c1ccc(Cn2cc3c(c2)-c2oncc2CC3)cc1           label 0
 2   Cc1sc2nc(-c3ccccn3)c(/C=N/N=C(N)N)n2c1C           label 0
 3  CC[C@](O)(C(=O)O)c1cc2n(c(=O)c1CO)Cc1cc3ccccc3nc1-2           label 0
 4  Nc1c(C(=O)Nc2cccc3ccccc23)sc2nc3c(cc12)CCCC3           label 0
 5  CCN(CC)c1ccc(/C=C/C(=O)c2cccc(NS(C)(=O)=O)c2)cc1           label 0
 6  CC(C)[C@@H](C(=O)O[C@@H]1/C=C/C(=O)O[C@@H](C)CCC/C=C/[C@@H]2C[C@H](O)C[C@H]21)[N+](C)(C)C           label 0
 7      NC(=O)Nc1ccc2ncnc(Nc3ccc(Cl)cc3)c2c1           label 0
 8  COc1ccc2nc(-c3ccccc3)cc(Nc3ccc(/C(C)=N/O)cc3)c2c1           label 0
 9  CC(=O)OC1CCC2(C)C(CCC3C2CCC2(C)C(C4=CC(=O)OC4)CCC32)C1 (stereo not given)           label 0
10  c1ccc(-c2n(Cc3ccc4ccccc4n3)c3ccccc3[n+]2Cc2ccc3ccccc3n2)cc1           label 1

---

# Test system: HCT-15 colon
# PROTOCOL_SUMMARY: NCI tumour cell line growth inhibition, 48 h; in the data active means GI50 below about 0.43 µM; inactive means the rest
Outcomes: active, inactive

> print(dat)
                                    compound  class.assignment
 1      COC(=O)Nc1nc2c(OC)c(OC)c(OC)cc2[nH]1          inactive
 2      COC(=O)c1[nH]nc(-c2ccccc2)c1N1CCCCC1          inactive
 3                O=C1C=C(N2CC2)c2ccccc2C1=O          inactive
 4  COc1ccc2nc(-c3ccccc3)cc(Nc3ccc(/C(C)=N/O)cc3)c2c1          inactive
 5  Cc1cc(C)cc(Nc2nccc(-c3c(-c4ccc(F)cc4)ncn3C3CCNCC3)n2)c1          inactive
 6  Cc1ccc(C(=O)Nc2ccc(CN3CCN(C)CC3)c(C(F)(F)F)c2)cc1C#Cc1cncc2ncccc12            active
 7               Clc1ccccc1-c1nc2ccccc2[nH]1          inactive
 8  COc1cc2c(cc1OCCCCCCNC(=O)c1cc3ccccc3[nH]1)N=CC1CCCN1C2=O (stereo not drawn)          inactive
 9  Cn1cc(-c2csc(-c3cn(CCN4CCOCC4)c4ccc(F)cc34)n2)c2cccnc21          inactive
10  COC(=O)[C@]12CC[C@@H](C)[C@H](C)[C@@H]1C1=CC[C@@H]3[C@@]4(C)C(c5ncon5)=C[C@@](C)(CO)C4=CC[C@@]3(C)[C@]1(C)CC2          inactive
11  O=C(Cc1ccccc1)Nc1nnc(CCSCCc2nnc(NC(=O)Cc3ccccc3)s2)s1          inactive
12      NC(=O)Nc1ccc2ncnc(Nc3ccc(Cl)cc3)c2c1          inactive
13  CN(C)CCCNC(=O)c1cc2c3ccccc3[nH]c2c2ncccc12          inactive
14  CC12C=CC(C)(O1)C1C2c2ccccc2S1(=O)=O (stereo not drawn)          inactive
15  Cc1c(N2C(=O)/C(=C\c3ccc(O)cc3)N=C2c2ccccc2)c(=O)n(-c2ccccc2)n1C          inactive
16          c1ccc(Cn2cc3c(c2)-c2oncc2CC3)cc1          inactive
17  C[C@@H]1CN(Cc2ccc(/C=C/c3n[nH]c4ccc5nc(-c6cn[nH]c6C(F)(F)F)c6c(c5c34)CCCC6)cc2)C[C@H](C)O1          inactive
18  Cc1cc[c-]cc1.Fc1c[c-]c(-c2ccccn2)c(F)c1.N#CCC[PH+](CCC#N)c1ccccc1.[Pt+2]          inactive

---

# System: ACHN renal
# PROTOCOL_SUMMARY: NCI tumour cell line growth inhibition, 48 h
MEASURED_ATTRIBUTE: TGI

> print(dat)
                                   compound  measured.attribute  obs.value
1  COc1ccc2[nH]c(C(=O)N3CC(CCl)c4ccc([N+](=O)[O-])cc43)cc2c1 (centres undefined)                 TGI   > 100 µM
2  CC1NOC(NS(=O)(=O)c2ccc(N=Nc3c(O)c(C(=O)O)cc4ccccc34)cc2)C1C (centres undefined)                 TGI   > 100 µM
3  CNC1=C(C)C(=O)C(C)=C(C(C)(C)CC(=O)n2cc(F)c(=O)[nH]c2=O)C1=O                 TGI   > 100 µM
4  C=C(C)CC1=C(C(=S)NCCO[Si](C)(C)C(C)(C)C)C(OCC)(OCC)C1=O                 TGI    33.8 µM
5  CC(NC(=O)C(C)C(=O)NCc1ccc(C(F)(F)F)cc1)C(N)=O (centres undefined)                 TGI   > 100 µM
6          CC(=O)c1ccc2c(c1)oc(=O)n2CCN(C)C                 TGI   > 100 µM
7  O=C1C2C(C(=O)[N]1[Hg][c]1ccccc1)C1(Cl)C(Cl)=C(Cl)C2(Cl)C1(Cl)Cl (centres undefined)                 TGI    3.07 µM
8  O=C1CC(c2ccccc2)Cc2nc3ccc(Cl)cc3cc21 (centres undefined)                 TGI   > 100 µM
9  O=C(O)c1cn(C2CC2)c2cc(N3CCN(S(=O)(=O)c4ccc(Cl)c(Cl)c4)CC3)c(F)cc2c1=O                 TGI   > 100 µM

---

log10 of TGI listing for selected compounds.
# System: EKVX NSCLC
# PROTOCOL_SUMMARY: NCI tumour cell line growth inhibition, 48 h
MEASURED_ATTRIBUTE: log10 of TGI (log10 of the value in µM)

> print(dat)
                                    compound  study.system  measured.attribute  obs.value
 1  CC1CCC2c3c([nH]c4ccccc34)C3C(=O)N(C4CCCCC4)C(=O)C3C2C1 (stereo not given)    EKVX NSCLC        log10 of TGI       1.60
 2  C=C1c2nc3ccccc3n2C=C(c2ccc(Cl)cc2)N1c1ccccc1    EKVX NSCLC        log10 of TGI       1.66
 3  O=[N+]([O-])c1cccc2nc3ccccc3c(NCCC[N+]3([O-])CCCCC3)c12    EKVX NSCLC        log10 of TGI       0.47
 4  O=C1C2C(C(=O)[N]1[Hg][c]1ccccc1)C1(Cl)C(Cl)=C(Cl)C2(Cl)C1(Cl)Cl (stereo not given)    EKVX NSCLC        log10 of TGI       1.40
 5  C[C@@H]1CN(Cc2ccc(/C=C/c3n[nH]c4ccc5nc(-c6cn[nH]c6C(F)(F)F)c6c(c5c34)CCCC6)cc2)C[C@H](C)O1    EKVX NSCLC        log10 of TGI       1.24
 6  Cn1cc(-c2csc(-c3cn(CCN4CCOCC4)c4ccc(F)cc34)n2)c2cccnc21    EKVX NSCLC        log10 of TGI       1.42
 7  COc1cc2c(cc1OCCCCCCNC(=O)c1cc3ccccc3[nH]1)N=CC1CCCN1C2=O (stereo not given)    EKVX NSCLC        log10 of TGI       1.82
 8      CCN(CC)C(=S)SNCCc1ccc(S(N)(=O)=O)cc1    EKVX NSCLC        log10 of TGI       1.60
 9  COC(=O)[C@]12CC[C@@H](C)[C@H](C)[C@@H]1C1=CC[C@@H]3[C@@]4(C)C(c5ncon5)=C[C@@](C)(CO)C4=CC[C@@]3(C)[C@]1(C)CC2    EKVX NSCLC        log10 of TGI       0.64
10  Cc1cc2nc3ccc(N=Nc4ccc(N(C)C)cc4)cc3n(-c3ccccc3)c-2cc1=N    EKVX NSCLC        log10 of TGI      -0.67
11  Sc1nnc(-c2ccccc2Nc2ccccc2-c2nnc(S)n2-c2ccccc2)n1-c1ccccc1    EKVX NSCLC        log10 of TGI       1.99
12  COc1ccc(OC)c(CNc2ccc(O)c(C(=O)NCCc3ccc(F)cc3)c2)c1    EKVX NSCLC        log10 of TGI       1.82
13                  NC1=CC(=O)C(=O)c2cccnc21    EKVX NSCLC        log10 of TGI       1.42
14  Cc1cc(N(CCCNc2ccnc3cc(Cl)ccc23)Cc2cccs2)nc(Cl)n1    EKVX NSCLC        log10 of TGI       1.43
15      COC(=O)c1[nH]nc(-c2ccccc2)c1N1CCCCC1    EKVX NSCLC        log10 of TGI       1.87
16  COc1cc(/C=C/C(=O)c2c(C)n([O-])c3cc(C)c(C)cc3[n+]2=O)cc(OC)c1OC    EKVX NSCLC        log10 of TGI       1.62
